Values compiled from the supplement of paper PMC7877785.

# test_details: self-splicing fitness, log relative to wild type (ln ratio); higher = more splicing; Tetrahymena group I intron in knt gene, E. coli kanamycin selection, DiMSum; sequences stand for … in CUCUCU…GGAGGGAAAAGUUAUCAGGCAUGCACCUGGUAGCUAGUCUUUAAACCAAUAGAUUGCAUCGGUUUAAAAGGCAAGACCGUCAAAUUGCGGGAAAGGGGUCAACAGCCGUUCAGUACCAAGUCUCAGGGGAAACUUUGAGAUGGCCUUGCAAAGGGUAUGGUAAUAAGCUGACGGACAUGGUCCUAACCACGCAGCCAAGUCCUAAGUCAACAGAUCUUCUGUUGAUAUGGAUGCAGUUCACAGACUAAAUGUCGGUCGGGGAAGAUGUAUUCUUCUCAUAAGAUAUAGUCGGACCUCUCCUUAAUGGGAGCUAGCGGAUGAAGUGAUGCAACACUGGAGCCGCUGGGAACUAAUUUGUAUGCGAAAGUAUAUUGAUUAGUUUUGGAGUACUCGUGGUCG;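 further: selection with 25 µg/mL kanamycin versus none on LB agar overnight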
# condition_label: 37 °C
measurement_name: self-splicing fitness (ln)
// return just the number, without any unit appended

# count of solved cases: 8
        sequence_record            measurement_name  assay_result
0  AGGCAGCAAUAUUACGUCCG  self-splicing fitness (ln)        -0.519
1  UCUCAGCAAUAUUACGUGAG  self-splicing fitness (ln)        -0.483
2  AUGAAGCAAUAUUACGAUAC  self-splicing fitness (ln)          -1.5
3  UAAGAGCAAUAUUACGUCAA  self-splicing fitness (ln)         -2.36
4  CGGCAGCAAUAUUACGUGUA  self-splicing fitness (ln)         -2.21
5  CAGCAGCAAUAUUACGGUCA  self-splicing fitness (ln)         -1.22
6  AAGGAGCAAUAUUACGGAAC  self-splicing fitness (ln)         -2.52
7  UGCCAGCAAUAUUACGUUCA  self-splicing fitness (ln)       -0.0317

Task: Entry AGCCAGCAAUAUUACGACAG needs its self-splicing fitness (ln) filled in; supply it.
Result: -2.74

Task: Entry GCUUAGCAAUAUUACGCCUA needs its self-splicing fitness (ln) filled in; supply it.
Result: -1.05

Task: Entry GGUCAGCAAUAUUACGUCCU needs its self-splicing fitness (ln) filled in; supply it.
Result: -1.85

Task: Entry GGCUAGCAAUAUUACGUCCU needs its self-splicing fitness (ln) filled in; supply it.
Result: -1.3

Task: Entry GUCUAGCAAUAUUACGUGGG needs its self-splicing fitness (ln) filled in; supply it.
Result: -1.64

Task: Entry GAUGAGCAAUAUUACGAUAU needs its self-splicing fitness (ln) filled in; supply it.
Result: -2.58

Task: Entry GCUGAGCAAUAUUACGGUCU needs its self-splicing fitness (ln) filled in; supply it.
Result: -1.65

Task: Entry CACCAGCAAUAUUACGCGGC needs its self-splicing fitness (ln) filled in; supply it.
Result: -2.72
